test system: photosynthetic electron transport (PET) in spinach chloroplasts; experiment: Inhibition of photosynthetic electron transport (PET) in spinach chloroplasts; format: biochemical, Spinacia oleracea L.; conditions: DCPIP photoreduction
With a cut-off of 40 µM, any IC50 strictly below it is called met; any IC50 meeting it or above is called not met.

Solved cases below.
ENTRY_SMILES: CC(C)[C@H](NC(=O)c1ccc(Cl)cc1O)C(=O)Nc1ccc(Cl)cc1
ASSIGNED_LABEL: met
//
ENTRY_SMILES: CC(C)[C@H](NC(=O)c1cc(Cl)ccc1O)C(=O)Nc1ccc(Br)cc1
ASSIGNED_LABEL: met
//
ENTRY_SMILES: CC(C)[C@@H](NC(=O)c1ccc(Cl)cc1O)C(=O)Nc1ccc(Br)cc1
ASSIGNED_LABEL: met

Input: Lab log: compare recorded IC50 with 40 µM; is it strictly lower for C[C@H](NC(=O)c1ccc(Cl)cc1O)C(=O)Nc1ccc(Cl)cc1 ?
Output: not met

Input: Now the same for O=C(N[C@@H](Cc1ccccc1)C(=O)Nc1ccc(Cl)cc1)c1cc(Cl)ccc1O
Output: met
